Exercise: for every item that follows, state its recorded IC50 FGFR3 (FGF9), FDCP-FGFR3 proliferation assay (dHLX format).
Target: wild type FGFR3 expressed on cells (UniProt P22607 23-806, limits assumed)
Sequence (P22607 23-806 limits assumed): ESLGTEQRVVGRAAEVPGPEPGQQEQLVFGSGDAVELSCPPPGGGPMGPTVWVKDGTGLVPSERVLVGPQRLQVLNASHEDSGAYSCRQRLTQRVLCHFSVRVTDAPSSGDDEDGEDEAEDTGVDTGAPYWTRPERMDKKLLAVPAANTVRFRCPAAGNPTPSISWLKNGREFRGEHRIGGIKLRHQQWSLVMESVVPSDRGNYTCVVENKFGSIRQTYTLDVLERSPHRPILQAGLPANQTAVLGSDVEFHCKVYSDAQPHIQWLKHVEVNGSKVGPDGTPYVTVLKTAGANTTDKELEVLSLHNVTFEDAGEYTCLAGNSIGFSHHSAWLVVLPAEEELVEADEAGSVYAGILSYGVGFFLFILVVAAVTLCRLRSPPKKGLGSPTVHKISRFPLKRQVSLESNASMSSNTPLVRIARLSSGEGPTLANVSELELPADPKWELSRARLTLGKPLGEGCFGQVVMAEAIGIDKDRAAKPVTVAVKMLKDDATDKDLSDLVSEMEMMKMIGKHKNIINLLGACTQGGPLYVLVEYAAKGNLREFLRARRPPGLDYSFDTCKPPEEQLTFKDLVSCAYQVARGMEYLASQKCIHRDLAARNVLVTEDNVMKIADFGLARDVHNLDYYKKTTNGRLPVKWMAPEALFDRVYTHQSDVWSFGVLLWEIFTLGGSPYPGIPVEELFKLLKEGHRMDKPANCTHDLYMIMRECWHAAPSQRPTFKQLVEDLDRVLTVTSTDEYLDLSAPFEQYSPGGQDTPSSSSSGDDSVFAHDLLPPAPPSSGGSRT
Test: cell-based or functional assay
Kindly provide the numeric value in nM only, without the unit symbol.

Input: Quick check: IC50 FGFR3 (FGF9), FDCP-FGFR3 proliferation assay (dHLX format) of PRO-001 Fab (Fab, V domains shown, Human Fab from the HuCAL-Fab-1 library; also called human anti-FGFR3 Fab PRO-001; anti-FGFR3 antibody) VH: QVQLQQSGPGLVKPSQTLSLTCAISGDSVSSNSAAWNWIRQSPGRGLEWLGRTYYRSKWYNDYAVSVKSRITINPDTSKNQFSLQLNSVTPEDTAVYYCARSYYPDFDYWGQGTLVTVSS VL: DIELTQPPSVSVAPGQTARISCSGDALGDKYASWYQQKPGQAPVLVIYDDSDRPSGIPERFSGSNSGNTATLTISGTQAEDEADYYCQSYDGPDLWVFGGGTKLTVLG ?
Output: 19

Input: Similarly, PRO-002 (Fab, V domains shown, HuCAL clone; the IC50 may be of the Fab-dHLX format) VH: QVQLVQSGAEVKKPGASVKVSCKASGYTFTSYYMHWVRQAPGQGLEWMGWINPNSGGTNYAQKFQGRVTMTRDTSISTAYMELSSLRSEDTAVYYCARDFLGYEFDYWGQGTLVTVSS VL: DIELTQPPSVSVAPGQTARISCSGDALGDKYASWYQQKPGQAPVLVIYDDSDRPSGIPERFSGSNSGNTATLTISGTQAEDEADYYCQSYDYSADYVFGGGTKLTVLG ?
Output: 360
